src = ChEMBL document CHEMBL1697781

System: Hepatotoxicity
assay.method.text: FDA HLAED, alkaline phosphatase increase
test.parameters: human
measure: Alkaline Phosphatase Increase - Number of Reports

Completed entries (count: 8):
CCC1(c2ccc(N)cc2)CCC(=O)NC1=O (stereo not given) [AMINOGLUTETHIMIDE]; < 4
COc1ccc(CCN2CCC(Nc3nc4ccccc4n3Cc3ccc(F)cc3)CC2)cc1; >= 4
CN1CCC[C@H]1c1cccnc1; < 4
COCC1=C(C(=O)O)N2C(=O)[C@@H](NC(=O)/C(=N\OC)c3csc(N)n3)[C@H]2SC1; >= 4
Brc1c(NC2=NCCN2)ccc2nccnc12; < 4
CCCCC(C)(O)C/C=C/[C@H]1[C@H](O)CC(=O)[C@@H]1CCCCCCC(=O)OC (stereo not given in full); >= 4
O=c1[nH]cc(F)c(=O)[nH]1; >= 4
CC(C)(C)NCC(O)c1ccc(O)c(CO)c1 (stereo not given); < 4

Given the entry N=C(N)N/N=C/c1c(Cl)cccc1Cl , report its measured Alkaline Phosphatase Increase - Number of Reports.
< 4

Given the entry CC(=O)N(CC(O)CN(C(C)=O)c1c(I)c(C(=O)NCC(O)CO)c(I)c(C(=O)NCC(O)CO)c1I)c1c(I)c(C(=O)NCC(O)CO)c(I)c(C(=O)NCC(O)CO)c1I (stereo not given) , report its measured Alkaline Phosphatase Increase - Number of Reports.
< 4

###

Test system: Hepatotoxicity
assay.method.text: FDA HLAED, serum glutamic oxaloacetic transaminase (SGOT) increase
test.parameters: human
measure: SGOT Increase - Index Value
Form rule: numeric answer, no unit written next to it.

COc1cc([C@@H]2c3cc4c(cc3[C@@H](O[C@@H]3O[C@@H]5CO[C@@H](C)O[C@H]5[C@H](O)[C@H]3O)[C@H]3COC(=O)[C@H]23)OCO4)cc(OC)c1O [ETOPOSIDE]; 0.4

Given the entry CC(C)/N=c1\cc2n(-c3ccc(Cl)cc3)c3ccccc3nc-2cc1Nc1ccc(Cl)cc1 [CLOFAZIMINE] , report its measured SGOT Increase - Index Value.
76.9

Given the entry Cc1cc2c(s1)Nc1ccccc1N=C2N1CCN(C)CC1 [OLANZAPINE] , report its measured SGOT Increase - Index Value.
16.5

Given the entry CN1CCCC(n2nc(Cc3ccc(Cl)cc3)c3ccccc3c2=O)CC1 (stereo not drawn) [AZELASTINE] , report its measured SGOT Increase - Index Value.
0

Given the entry CCOC(=O)c1ccc(C#Cc2ccc3c(c2)C(C)(C)CCS3)nc1 [TAZAROTENE] , report its measured SGOT Increase - Index Value.
0

Given the entry CCOC(=O)C1=C(COCCN)NC(C)=C(C(=O)OC)C1c1ccccc1Cl (stereo not drawn) [AMLODIPINE] , report its measured SGOT Increase - Index Value.
1.3

Given the entry Nc1nc(O)c2ncn(COC(CO)CO)c2n1 [GANCICLOVIR] , report its measured SGOT Increase - Index Value.
2.7

Given the entry CC1(C)NC(=O)N(c2ccc([N+](=O)[O-])c(C(F)(F)F)c2)C1=O [NILUTAMIDE] , report its measured SGOT Increase - Index Value.
19.5

###

Test system: Hepatotoxicity
assay.method.text: FDA HLAED, gamma-glutamyl transferase (GGT) increase
test.parameters: human
measure: GGT Increase - Number of Reports

Completed entries (count: 6):
CNCC(O)c1ccc(OC(=O)C(C)(C)C)c(OC(=O)C(C)(C)C)c1 (stereo unspecified) [DIPIVEFRIN]; < 4
NCC1(CC(=O)O)CCCCC1 [GABAPENTIN]; >= 4
CC1(C)C(C=C(Cl)Cl)C1C(=O)OCc1cccc(Oc2ccccc2)c1 (stereo unspecified) [PERMETHRIN]; < 4
Cc1cc(CC(=O)O)n(C)c1C(=O)c1ccc(Cl)cc1 [ZOMEPIRAC]; < 4
CC1=C(C(=O)O)N2C(=O)[C@@H](NC(=O)[C@H](N)c3ccc(O)cc3)[C@H]2SC1 [CEFADROXIL]; < 4
Nc1nc(/C(=C/CC(=O)O)C(=O)N[C@@H]2C(=O)N3C(C(=O)O)=CCS[C@H]23)cs1 [CEFTIBUTEN]; < 4

Given the entry O=c1[nH]c2ccccc2n1C1CCN(CCCC(c2ccc(F)cc2)c2ccc(F)cc2)CC1 [PIMOZIDE] , report its measured GGT Increase - Number of Reports.
< 4

Given the entry CC1(C)S[C@@H]2[C@H](NC(=O)[C@H](NC(=O)N3CCN(S(C)(=O)=O)C3=O)c3ccccc3)C(=O)N2[C@H]1C(=O)O [MEZLOCILLIN] , report its measured GGT Increase - Number of Reports.
< 4

###

Tested on: Hepatotoxicity
assay.method.text: FDA HLAED, liver enzyme composite activity
test.parameters: human
measure: Composite Activity - Score

Completed entries (count: 4):
CCCCCCC(=O)O[C@H]1CC[C@H]2[C@@H]3CCC4=CC(=O)CC[C@]4(C)[C@H]3CC[C@]12C [TESTOSTERONE ENANTHATE]; Inactive
NC1=NC(=O)C(c2ccccc2)O1 (stereo not given); Active
CC(C)/N=c1\cc2n(-c3ccc(Cl)cc3)c3ccccc3nc-2cc1Nc1ccc(Cl)cc1; Active
Cc1nccn1CC1CCc2c(c3ccccc3n2C)C1=O (stereo not given); Inactive

// map NC(=O)c1ncn([C@@H]2O[C@H](CO)[C@@H](O)[C@H]2O)n1 to recorded Composite Activity - Score (system: Hepatotoxicity)
Inactive

###

Tested on: Hepatotoxicity
assay.method.text: FDA HLAED, alkaline phosphatase increase
test.parameters: human
measure: Alkaline Phosphatase Increase - Activity Score

Completed entries (count: 8):
Nc1c2c(nc3ccccc13)CCCC2 [TACRINE]; Active
Brc1c(NC2=NCCN2)ccc2nccnc12 [BRIMONIDINE]; Inactive
CNCCC=C1c2ccccc2CCc2ccccc21 [NORTRIPTYLINE]; Active
COc1cc([C@@H]2c3cc4c(cc3[C@@H](O[C@@H]3O[C@@H]5CO[C@@H](c6cccs6)O[C@H]5[C@H](O)[C@H]3O)[C@H]3COC(=O)[C@H]23)OCO4)cc(OC)c1O [TENIPOSIDE]; Inactive
Nc1ccc(O)c(C(=O)O)c1 [MESALAMINE]; Inactive
NCCCC[C@H](N[C@@H](CCc1ccccc1)C(=O)O)C(=O)N1CCC[C@H]1C(=O)O [LISINOPRIL ANHYDROUS]; Inactive
COc1ccccc1OCCNCC(O)COc1cccc2[nH]c3ccccc3c12 (stereo not drawn) [CARVEDILOL]; Inactive
CO/N=C(\C(=O)N[C@@H]1C(=O)N2C(C(=O)O)=C(COC(C)=O)CS[C@H]12)c1csc(N)n1 [CEFOTAXIME]; Inactive

Now consider a different compound.
Given the entry CCOc1ccc2ccccc2c1C(=O)N[C@@H]1C(=O)N2[C@@H]1SC(C)(C)[C@@H]2C(=O)O [NAFCILLIN] , report its measured Alkaline Phosphatase Increase - Activity Score.
Active

###

System: Hepatotoxicity
assay.method.text: FDA HLAED, liver enzyme composite activity
test.parameters: human
measure: Composite Activity - Score

CNCC(O)c1ccc(OC(=O)C(C)(C)C)c(OC(=O)C(C)(C)C)c1 (centres undefined); Inactive
CNS(=O)(=O)Cc1ccc2[nH]cc(CCN(C)C)c2c1; Inactive
COCC1=C(C(=O)O)N2C(=O)[C@@H](NC(=O)/C(=N\OC)c3csc(N)n3)[C@H]2SC1; Inactive
CN1CCN(C2=Nc3ccccc3Oc3ccc(Cl)cc32)CC1; Active
CO/N=C(\C(=O)N[C@@H]1C(=O)N2C(C(=O)OC(C)OC(C)=O)=C(COC(N)=O)CS[C@H]12)c1ccco1 (some centres undefined); Inactive

Given the entry CCCCC[C@H](O)/C=C/[C@@H]1[C@H]2C/C(=C/CCCC(=O)O)O[C@H]2C[C@H]1O , report its measured Composite Activity - Score.
Inactive

Given the entry Nc1cc(-c2ccncc2)c[nH]c1=O , report its measured Composite Activity - Score.
Inactive

Given the entry CC(C(=O)O)c1ccc(-c2ccccc2)c(F)c1 (centres undefined) , report its measured Composite Activity - Score.
Inactive

Given the entry CCn1nc(C(=O)O)c(=O)c2cc3c(cc21)OCO3 , report its measured Composite Activity - Score.
Active

###

Test system: Hepatotoxicity
assay.method.text: FDA HLAED, serum glutamic pyruvic transaminase (SGPT) increase
test.parameters: human
Numbered stars: 1 amine (or outer) side, 2 acyl side, 3 side chain; on linkers, the order of the positions; unused ones are H or OH. Bridge positions count the residues as written; N and C are the ends. Square brackets hold non-standard residues; d marks the D form. Peptide text beside a SMILES is read from it. I, II: the chains in the order shown. Actinocin(9to1) = Cc1c2oc3c(C)ccc(C(=O)[*:1])c3nc-2c(C(=O)[*:2])c(N)c1=O; NMeV = CN[C@H](C(=O)O)C(C)C; Sar = CNCC(=O)O
measure: SGPT Increase - Number of Reports

Completed entries (count: 5):
Clc1ccc(CSC(Cn2ccnc2)c2ccc(Cl)cc2Cl)cc1 (stereo unspecified) [SULCONAZOLE]; < 4
CCC(=O)O[C@H]1[C@H](O[C@@H]2[C@@H](C)[C@H](O[C@H]3C[C@@](C)(OC)[C@@H](O)[C@H](C)O3)[C@@H](C)C(=O)O[C@H](CC)[C@@](C)(O)[C@H](O)[C@@H](C)C(=O)[C@H](C)C[C@@]2(C)O)O[C@H](C)C[C@@H]1N(C)C [ERYTHROMYCIN PROPIONATE]; >= 4
CC(C)(C)NCC(O)c1ccc(O)c(CO)n1 (stereo unspecified) [PIRBUTEROL]; < 4
Cc1c2oc3c(C)ccc(C(=O)N[C@@H]4C(=O)N[C@H](C(C)C)C(=O)N5CCC[C@H]5C(=O)N(C)CC(=O)N(C)[C@@H](C(C)C)C(=O)O[C@@H]4C)c3nc-2c(C(=O)N[C@@H]2C(=O)N[C@H](C(C)C)C(=O)N3CCC[C@H]3C(=O)N(C)CC(=O)N(C)[C@@H](C(C)C)C(=O)O[C@@H]2C)c(N)c1=O [DACTINOMYCIN] (I: T[dV]P[Sar][NMeV] / II: T[dV]P[Sar][NMeV]; ester I:1-I:C, II:1-II:C; linker I:N-II:N via Actinocin(9to1)); >= 4
CC(=O)O[C@H]1C[C@@H]2CC[C@@H]3[C@H](CC[C@@]4(C)[C@H]3C[C@H](N3CC[N+](C)(C)CC3)[C@@H]4OC(C)=O)[C@@]2(C)C[C@@H]1N1CC[N+](C)(C)CC1.[Br-].[Br-] [PIPECURONIUM BROMIDE]; < 4

Given the entry CNCCCC12CCC(c3ccccc31)c1ccccc12 [MAPROTILINE] , report its measured SGPT Increase - Number of Reports.
< 4
